# system: human-D3R (Homo sapiens, UniProt P35462)
# Construct: expressed in transfected cells; host or cells: CHO cell line stably transfected with human D3R
# Sequence (P35462 whole entry): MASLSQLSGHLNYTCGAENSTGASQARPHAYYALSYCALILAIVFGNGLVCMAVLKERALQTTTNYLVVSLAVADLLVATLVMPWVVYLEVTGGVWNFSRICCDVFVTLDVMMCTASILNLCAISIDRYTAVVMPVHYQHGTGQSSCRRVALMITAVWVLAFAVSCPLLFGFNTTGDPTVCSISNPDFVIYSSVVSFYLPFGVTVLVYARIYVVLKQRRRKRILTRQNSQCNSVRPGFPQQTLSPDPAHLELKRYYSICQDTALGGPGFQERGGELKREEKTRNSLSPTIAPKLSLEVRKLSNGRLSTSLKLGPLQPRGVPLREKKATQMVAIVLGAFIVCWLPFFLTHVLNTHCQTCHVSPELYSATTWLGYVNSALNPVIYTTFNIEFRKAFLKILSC
# measurement.protocol: D3 Dopamine Receptor (D3dR) cellular assay, cAMP HTRF functional assay in human-D3R expressing CHO cells
# Format: cell-based
# protocol.conditions: CHO, 0.5 h; % of 300 nM Dopamine response; read-out: Dopamine D3 % of Agonist Activity
# Method: D3 Dopamine Receptor (D3dR) Cellular Assay Activity on D3R was tested with a cAMP functional assay on a stably transfected human-D3R expressing CHO cell line. […] The signal was quantified by Homogenous Time-Resolved Fluorescence (HTRF) on a Perkin Elmer Envision plate reader after one hour of incubation at RT. […]
Counter-ions that a name gives are not always drawn.
readout.kind: Emax (%)
Give your result in % as a bare value.

Incoming: Given the entry O=C(NCCCCN1CCN(c2cccc(Cl)c2Cl)CC1)Oc1ccc2c(c1)[nH]c1ccccc12 , what Emax was observed with human-D3R (Homo sapiens, UniProt P35462)?
Outgoing: 89.7

Incoming: Given the entry Cc1ccccc1N1CCN(CCCNC(=O)Oc2ccc(-c3ccccc3)cc2)CC1 , what Emax was observed with human-D3R (Homo sapiens, UniProt P35462)?
Outgoing: 82

Incoming: Given the entry O=C(NCCCN1CCN(c2cccc(Cl)c2Cl)CC1)Oc1ccc2c(c1)[nH]c1ccccc12 , what Emax was observed with human-D3R (Homo sapiens, UniProt P35462)?
Outgoing: 91

Incoming: Given the entry O=C(NCCCCN1CCN(c2cccc(Cl)c2Cl)CC1)Oc1ccc(N2CCC(F)(F)CC2)cc1 [Example 12, hydrochloride] , what Emax was observed with human-D3R (Homo sapiens, UniProt P35462)?
Outgoing: 90.7

Incoming: Given the entry O=C(NCCC(F)CN1CCN(c2cccc(Cl)c2Cl)CC1)Oc1ccc(-c2ccccc2)cc1 (centres unmarked) , what Emax was observed with human-D3R (Homo sapiens, UniProt P35462)?
Outgoing: 87.6

These measurements were taken from patent US9828352B2.
